Reference source for all entries: patent US20040053822A1

# target system: HLA-B*3501 (Homo sapiens, UniProt P01889, A329T/A93T/A95T/C349S/D201E/D98Y/E176V/E187L/E204Q/E69T/I218V/K202T/L119I/Q94N/R155S/R180L/S121R/S35A/S48A/T118I/V127L/V306I/V36M/Y140S/Y91F)
# assay details: Purified HLA class I peptide binding assay, B*3501
# test conditions: binding affinity, HLA-B7 supermotif-bearing peptides
Residues, ends and D or L forms follow the SMILES beside them.
metric name: IC50 (µM)
Report the value in µM with no unit label.

Example entries begin here.
[[record]]
compound = "CC[C@H](C)[C@H](NC(=O)[C@@H](NC(=O)[C@@H](NC(=O)[C@H](CC(C)C)NC(=O)[C@H](CC(C)C)NC(=O)CNC(=O)[C@H](C)NC(=O)[C@H](CCCCN)NC(=O)[C@@H]1CCCN1C(=O)[C@@H](N)Cc1ccccc1)[C@@H](C)CC)[C@@H](C)CC)C(=O)O"
unit_text = "µM"
test_value = 2.67

[[record]]
compound = "CC[C@H](C)[C@H](NC(=O)[C@@H]1CCCN1C(=O)[C@@H]1CCCN1C(=O)[C@H](Cc1ccc(O)cc1)NC(=O)[C@H](CO)NC(=O)[C@@H](NC(=O)[C@H](Cc1c[nH]cn1)NC(=O)[C@@H]1CCCN1C(=O)[C@@H](N)Cc1ccccc1)[C@@H](C)CC)C(=O)O"
unit_text = "µM"
test_value = 0.36

[[record]]
compound = "CSCC[C@H](NC(=O)[C@@H](NC(=O)[C@@H](NC(=O)[C@@H]1CCCN1C(=O)[C@@H](N)Cc1ccccc1)[C@@H](C)O)[C@@H](C)O)C(=O)N[C@@H](CC(N)=O)C(=O)N[C@@H](Cc1ccc(O)cc1)C(=O)N1CCC[C@H]1C(=O)N[C@@H](CC(C)C)C(=O)O (H-FPTTMNYPL-OH; N-terminus and C-terminus assumed)"
unit_text = "µM"
test_value = 0.0045

[[record]]
compound = "CC[C@H](C)[C@H](NC(=O)[C@H](Cc1ccc(O)cc1)NC(=O)[C@H](CO)NC(=O)[C@@H](NC(=O)[C@H](CCC(=O)O)NC(=O)[C@@H](NC(=O)[C@H](CC(C)C)NC(=O)[C@H](C)NC(=O)[C@H](CCCNC(=N)N)NC(=O)[C@@H]1CCCN1C(=O)[C@@H](N)Cc1ccccc1)[C@@H](C)CC)[C@@H](C)O)C(=O)O (H-FPRALIETSYI-OH; N-terminus and C-terminus assumed)"
unit_text = "µM"
test_value = 3.6


We next turn to a different compound, shown below.
Quickly give me recorded IC50 for CC(C)C[C@H](NC(=O)[C@H](C)NC(=O)[C@H](CCCNC(=N)N)NC(=O)[C@@H]1CCCN1C(=O)[C@@H](N)Cc1ccccc1)C(=O)N[C@H](C(=O)N[C@@H](CCC(=O)O)C(=O)N[C@H](C(=O)N[C@@H](CO)C(=O)N[C@@H](Cc1ccc(O)cc1)C(=O)N[C@H](C(=O)O)C(C)C)[C@@H](C)O)C(C)C 4.23

----------
Listed here: items and their measured IC50.
# target system: HLA-B*5401 (Homo sapiens, UniProt P01889, A329T/C349S/D138N/D201E/E176V/E187T/E204Q/E69G/I76V/K202T/L119W/R155S/R180L/S121T/S35A/S48A/V127L/V306I/V36M/Y140L)
# assay details: Purified HLA class I peptide binding assay, B*5401
# test conditions: binding affinity, HLA-B7 supermotif-bearing peptides
Report the value in nM with no unit label.

Quickly give me recorded IC50 for CC[C@H](C)[C@H](NC(=O)[C@H](CC(C)C)NC(=O)[C@H](C)NC(=O)[C@H](CCCNC(=N)N)NC(=O)[C@@H]1CCCN1C(=O)[C@@H](N)Cc1ccccc1)C(=O)N[C@@H](CCC(=O)O)C(=O)N[C@H](C(=O)N[C@@H](CO)C(=O)N[C@@H](Cc1ccc(O)cc1)C(=O)N[C@H](C(=O)O)C(C)C)[C@@H](C)O 7.1

Quickly give me recorded IC50 for CC[C@H](C)[C@H](NC(=O)[C@H](Cc1ccccc1)NC(=O)[C@@H](NC(=O)[C@H](Cc1ccc(O)cc1)NC(=O)[C@H](CC(C)C)NC(=O)[C@H](Cc1c[nH]cn1)NC(=O)CNC(=O)[C@@H](NC(=O)[C@@H]1CCCN1C(=O)[C@@H](N)Cc1ccccc1)[C@@H](C)CC)[C@@H](C)CC)C(=O)O 2.9

Quickly give me recorded IC50 for CC[C@H](C)[C@H](NC(=O)[C@H](CC(C)C)NC(=O)[C@@H](NC(=O)[C@H](Cc1ccc(O)cc1)NC(=O)[C@H](CC(C)C)NC(=O)[C@H](Cc1c[nH]cn1)NC(=O)[C@H](CO)NC(=O)[C@@H](NC(=O)[C@@H]1CCCN1C(=O)[C@@H](N)Cc1ccccc1)[C@@H](C)CC)[C@@H](C)CC)C(=O)O 2.6

----------
Listed here: items and their measured IC50.
# target system: HLA-B*3501 (Homo sapiens, UniProt P01889, A329T/A93T/A95T/C349S/D201E/D98Y/E176V/E187L/E204Q/E69T/I218V/K202T/L119I/Q94N/R155S/R180L/S121R/S35A/S48A/T118I/V127L/V306I/V36M/Y140S/Y91F)
# assay details: Purified HLA class I peptide binding assay, B*3501
# test conditions: binding affinity, HLA-B7 supermotif-bearing peptides
Residues, ends and D or L forms follow the SMILES beside them.
Report the value in nM with no unit label.

Quickly give me recorded IC50 for CC[C@H](C)[C@H](NC(=O)[C@H](CC(C)C)NC(=O)[C@H](C)NC(=O)[C@H](CCCNC(=N)N)NC(=O)[C@@H]1CCCN1C(=O)[C@@H](N)Cc1ccccc1)C(=O)N[C@@H](CCC(=O)O)C(=O)N[C@H](C(=O)N[C@@H](CO)C(=O)N[C@@H](Cc1ccc(O)cc1)C(=O)N[C@H](C(=O)O)C(C)C)[C@@H](C)O 4500

Quickly give me recorded IC50 for CC[C@H](C)[C@H](NC(=O)[C@H](Cc1ccc(O)cc1)NC(=O)[C@H](CC(C)C)NC(=O)[C@H](Cc1c[nH]cn1)NC(=O)CNC(=O)[C@@H](NC(=O)[C@@H]1CCCN1C(=O)[C@@H](N)Cc1ccccc1)[C@@H](C)CC)C(=O)N[C@@H](Cc1ccccc1)C(=O)N[C@@H](C)C(=O)O (H-FPIGHLYIFA-OH; N-terminus and C-terminus assumed) 51

Quickly give me recorded IC50 for CC[C@H](C)[C@H](NC(=O)[C@@H]1CCCN1C(=O)[C@H](Cc1ccc(O)cc1)NC(=O)[C@H](CC(N)=O)NC(=O)[C@H](CCSC)NC(=O)[C@@H](NC(=O)[C@@H](NC(=O)[C@@H]1CCCN1C(=O)[C@@H](N)Cc1ccccc1)[C@@H](C)O)[C@@H](C)O)C(=O)O 22

----------
# target system: HLA-B*5301 (Homo sapiens, UniProt P01889, A329T/A93T/A95T/C349S/D201E/D98Y/E176V/E187L/E204Q/E69T/G107R/I218V/K202T/L105A/L119I/N104I/Q94N/R106L/R155S/R180L/S101N/S121R/S35A/S48A/T118I/V127L/V306I/V36M/Y140S/Y91F)
# assay details: Purified HLA class I peptide binding assay, B*5301
# test conditions: binding affinity, HLA-B7 supermotif-bearing peptides
Listed here: items and their measured pIC50.
Notebook: values listed as pIC50 are -log10 of the concentration (mol/L).

Example entries begin here.
[[record]]
molecule = "CC[C@H](C)[C@H](NC(=O)[C@H](Cc1ccc(O)cc1)NC(=O)[C@H](CO)NC(=O)[C@@H](NC(=O)[C@H](CCC(=O)O)NC(=O)[C@@H](NC(=O)[C@H](CC(C)C)NC(=O)[C@H](C)NC(=O)[C@H](CCCNC(=N)N)NC(=O)[C@@H]1CCCN1C(=O)[C@@H](N)Cc1ccccc1)C(C)C)[C@@H](C)O)C(=O)O"
metric_name = "pIC50"
test_value = 6.21

[[record]]
molecule = "CC[C@H](C)[C@H](NC(=O)[C@H](CC(C)C)NC(=O)[C@H](CC(C)C)NC(=O)CNC(=O)[C@H](C)NC(=O)[C@H](CCCCN)NC(=O)[C@@H]1CCCN1C(=O)[C@@H](N)Cc1ccccc1)C(=O)O"
metric_name = "pIC50"
test_value = 6.11

[[record]]
molecule = "CC[C@H](C)[C@H](NC(=O)[C@@H](NC(=O)[C@@H](NC(=O)[C@H](CC(C)C)NC(=O)[C@H](CC(C)C)NC(=O)CNC(=O)[C@H](C)NC(=O)[C@H](CCCCN)NC(=O)[C@@H]1CCCN1C(=O)[C@@H](N)Cc1ccccc1)[C@@H](C)CC)[C@@H](C)CC)C(=O)O"
metric_name = "pIC50"
test_value = 6.07

[[record]]
molecule = "CC[C@H](C)[C@H](NC(=O)[C@@H]1CCCN1C(=O)[C@@H]1CCCN1C(=O)[C@H](Cc1ccc(O)cc1)NC(=O)[C@H](CO)NC(=O)[C@@H](NC(=O)[C@H](Cc1c[nH]cn1)NC(=O)[C@@H]1CCCN1C(=O)[C@@H](N)Cc1ccccc1)[C@@H](C)CC)C(=O)O"
metric_name = "pIC50"
test_value = 6.63

[[record]]
molecule = "CC[C@H](C)[C@H](NC(=O)[C@H](CO)NC(=O)[C@H](CO)NC(=O)[C@H](C)NC(=O)CNC(=O)[C@H](CCC(N)=O)NC(=O)[C@@H]1CCCN1C(=O)[C@@H](N)Cc1ccccc1)C(=O)O"
metric_name = "pIC50"
test_value = 5.52


We next turn to a different molecule, shown below.
Quickly give me recorded pIC50 for CC[C@H](C)[C@H](NC(=O)[C@@H](NC(=O)[C@H](Cc1ccc(O)cc1)NC(=O)[C@H](CC(C)C)NC(=O)[C@H](Cc1c[nH]cn1)NC(=O)[C@H](CO)NC(=O)[C@@H](NC(=O)[C@@H]1CCCN1C(=O)[C@@H](N)Cc1ccccc1)[C@@H](C)CC)[C@@H](C)CC)C(=O)O 8.36
